- System: SR
- ASSAY: NCI tumour cell line growth inhibition, 48 h
Activity calls are given as the source filed them. Cut-off read from the data, not from the text of the source: active = GI50 up to about 1.1 µM and inactive = higher.
Result category, one only: active, inactive

Some solved cases for reference:
MOLECULE	ASSIGNED_CATEGORY
C1=Cc2nccc3cc4c(c(c23)N1)OCO4	inactive
Cc1cccc(NC(Nc2cccc(C)c2)=C(C(Cl)=C(Cl)Cl)[N+](=O)[O-])c1	inactive
Cc1ccc(S(=O)(=O)n2cc(-c3cnc(N)c(Br)n3)c3ccccc32)cc1	active
O=C(O)C1CC(C2CCCCN2)CN2CCCCC12 (stereo unspecified)	inactive
CN(C)CCNC(=O)c1cccc2nc3c(nc12)-c1ccccc1C3=O	inactive
COC(=O)c1c(C(=O)OC)c(-c2ccccc2)n(-c2ccccc2)c(=O)c1-c1ccccc1	inactive
CC1(C)C(=O)C(O)=CC2C1=CCC1C2(C)C(=O)CC2(C)C(C(C)(O)C(=O)CC(O)C(C)(C)O)C(O)CC12C (stereo unspecified)	inactive
CC(C)C1=C2CCC3(C)C(CCC4C5C6OCC5(CCC6(C)C)CCC43C)C2(C)CC1 (stereo unspecified)	inactive
C=Cc1ccccc1C1(O)C=CC(OC)(OC)C=C1	inactive
CC(C)CC1CC2C(=O)N(c3ccccc3)C(=O)C2c2[nH]c3ccccc3c21 (stereo unspecified)	inactive

query: Which outcome did this test record for the molecule CCN(CC)C(=O)Cn1c(-c2ccccc2)cc2ccccc21 ?
result: inactive

query: # outcome recorded in this test, key = O=C(CCc1cc(-c2ccco2)n(-c2ccc([N+](=O)[O-])cc2[N+](=O)[O-])n1)Nc1ccccc1
result: inactive

query: Outcome? Cc1cccc(C(C)(C)C)c1NC(=O)CC1C(=O)Nc2ccccc2[S+]1[O-] (stereo unspecified)
result: inactive

query: Given Cn1nc(/C=C\C(=O)N2CC(CCl)c3c2cc(N)c2ccccc32)cc1/C=C/C(=O)N1CC(CCl)c2c1cc(N)c1ccccc21 (stereo unspecified) , state the outcome it received in this test.
result: active

query: Name the outcome recorded for CC1CC(C)CN(S(=O)(=O)c2cc(Cl)c(Oc3ccc([N+](=O)[O-])cc3Cl)c(Cl)c2)C1 (stereo unspecified) in the assay.
result: inactive

query: Fill in: this test's call for C=C(CN(CC(=C)C(=O)c1ccccc1)C(C)(C)C)C(=O)c1ccccc1 is ___
result: inactive

---

- Tested on: MCF7
- ASSAY: NCI tumour cell line growth inhibition, 48 h
The source made the active and inactive calls. No stated cut-off is given here; in the data, active = GI50 up to about 1.1 µM and inactive = higher.
PARAMETER_MEASURED: GI50

COMPOUND	PARAMETER_MEASURED	REPORTED_VALUE
CCOCCOC(=O)C1CCC(=O)N1CN(C(C)=O)c1cc(OC)ccc1OC (stereo unspecified)	GI50	> 100 µM (inactive)

query: Missing value: GI50, MCF7, entry CC(C)[C@@H]1ON1C(C)c1ccccc1 (stereo partly specified) . Fill in?
result: 13.7 µM (inactive)

query: Write down the reported GI50 of O=C(CNc1ccccn1)Nn1cnc2ccc(S(=O)(=O)Nc3ccccn3)cc2c1=O , test system: MCF7.
result: > 100 µM (inactive)

query: Reported GI50 for MCF7, given NNC(=O)c1c(-c2cccnc2)cnc2ccccc12 ?
result: > 100 µM (inactive)

query: Item: CC1(C)OP(=O)(O)C=C1Sc1ccc([N+](=O)[O-])cc1[N+](=O)[O-] Test system: MCF7 Read-out: GI50 Value: ?
result: > 100 µM (inactive)

query: Record COc1cc2ccnc3c2c(c1OC)N(C)C=C3 : what is its GI50 with MCF7?
result: 16.6 µM (inactive)

---

Recorded GI50 for the following molecules
- Test system: COLO 205
- ASSAY: NCI tumour cell line growth inhibition, 48 h
Active and inactive are the calls of the source. No stated cut-off is given here; in the data, active = GI50 up to about 1.1 µM and inactive = higher.

MOLECULE	GI50
Cc1cn(CC2=NCCN2)c(=O)[nH]c1=O	> 100 µM (inactive)
O=C1Nc2ccccc2/C1=N/NC(=S)Nc1cccc(Cl)c1	8.93 µM (inactive)
O=S1(=O)c2ccccc2NC(=S)N1c1ccccc1	77.8 µM (inactive)
CCCCCCC(O)C(O)CCC(O)C1CCC(CCCCC(O)CC2=CC(C)OC2=O)O1 (stereo unspecified)	1.75 µM (inactive)
[N-]=[N+]=Nc1c([N+](=O)[O-])c(=O)n(-c2ccccc2)c2ccccc12	21.1 µM (inactive)

query: Recorded GI50 for CN(C)C(=O)OC1C(=O)N(C)c2ccc(Cl)cc2C2(c3ccccc3)N1C2(Cl)Cl (stereo unspecified) , please?
result: > 100 µM (inactive)

query: Find the recorded GI50 belonging to Cc1cc(C)c(C(=O)OC(c2ccccc2)C(c2ccccc2)N2CCOCC2)c(C)c1 (stereo unspecified) and report it.
result: > 100 µM (inactive)

query: Can you share its GI50? I mean this molecule: COc1ccc(C(C2=C(C)C(=O)c3ccccc3C2=O)c2ccc(C(C)C)cc(=O)c2O)cc1 (stereo unspecified)
result: 5.31 µM (inactive)

query: Which value of GI50 has been reported for O=[N+]([O-])c1nccn1COCCO in the records?
result: > 100 µM (inactive)

query: Dear colleague, I am looking for the recorded GI50 of the following molecule: Cc1cc(Oc2cnc(=O)[nH]c2)cs1
result: > 100 µM (inactive)

query: For O=C(CC1(O)C(=O)Nc2ccccc21)c1ccc(O)cc1 (stereo unspecified) , what is its reported GI50?
result: > 100 µM (inactive)

---

# GI50 per record follows
- System: HT-29
- ASSAY: NCI tumour cell line growth inhibition, 48 h
Active and inactive are the calls of the source. Cut-off read from the data, not from the text of the source: active = GI50 up to about 1.1 µM and inactive = higher.

MOLECULE	GI50
[N-]=[N+]=Nc1ccccc1-[n+]1noc([O-])c1Br	> 100 µM (inactive)

query: Consider the molecule shown here: Nc1nc(Nc2ccccc2)sc1C(=O)c1ccc(Cl)cc1 What is its recorded GI50?
result: > 100 µM (inactive)

query: Bench note: what GI50 did CCN(CC)C(=O)Cn1c(-c2ccccc2)cc2ccccc21 show?
result: 29 µM (inactive)

query: Quick one: GI50 of FC(F)(F)c1nc2cc(SSc3cc4nc(C(F)(F)F)[nH]c4cc3Cl)c(Cl)cc2[nH]1 ?
result: > 100 µM (inactive)

query: # GI50 lookup, item COC(=O)CCC(=O)Nc1cccc(C(F)(F)F)c1
result: > 100 µM (inactive)

query: Look at this molecule and give its reported GI50. CNc1ccc(Cl)cc1C(=O)N1CCC[C@H]1CO
result: > 100 µM (inactive)

query: Fill blank: measured GI50 of the molecule N=C(c1ccccc1)N(O)C1CCCCC1 is ____.
result: > 100 µM (inactive)

query: So what's the measured GI50 for this one? COc1cc(OC)nc(NC(=O)NS(=O)(=O)c2cccc3ncn(C)c(=O)c23)n1
result: > 100 µM (inactive)

query: Dear colleague, I am looking for the recorded GI50 of the following molecule: CN(O)C(=S)c1ccccc1
result: 0.312 µM (active)

query: Can you share its GI50? I mean this molecule: Oc1ncnc2c1nnn2CCCn1nnc2c(O)ncnc21
result: > 100 µM (inactive)

query: Look at this molecule and give its reported GI50. C1CCC(OC2CSC2)OC1 (configuration not stated)
result: > 100 µM (inactive)

query: GET /values?readout=GI50&item= CC(C)=NNc1ncnc2[nH]cnc12
result: 6.04 µM (inactive)

---

Reported GI50 values follow for various compounds
- Tested on: OVCAR-4
- ASSAY: NCI tumour cell line growth inhibition, 48 h
Active and inactive are the calls of the source. Cut-off read from the data, not from the text of the source: active = GI50 up to about 1.1 µM and inactive = higher.

Solved cases below.
COMPOUND	TARGET_DESC	GI50
O=c1nc(-c2ccccc2)c2c3c(cccn13)CCC2	OVCAR-4	> 100 µM (inactive)
CC(C)NC(=O)OCc1c(COC(=O)NC(C)C)c(-c2cc[n+](COC(=O)CC(C)(C)C)cc2)n2c1CCC2	OVCAR-4	> 100 µM (inactive)
CC(C)n1c(=O)c2nn3c(=O)n(C(C)C)c(=O)c3nn2c1=O	OVCAR-4	> 100 µM (inactive)
CCOC(=O)c1c(CN2CCOCC2)n(Cc2ccccc2)c2c1cc(O)c1nc(C)c(C)nc12	OVCAR-4	47.8 µM (inactive)
COc1cc2c(cc1OC)-c1cc3ccccc3c(=O)n1CCC2	OVCAR-4	24.6 µM (inactive)
Cc1cccc(NC(Nc2cccc(C)c2)=C(C(Cl)=C(Cl)Cl)[N+](=O)[O-])c1	OVCAR-4	22.8 µM (inactive)
O=C(COc1ccc(OCC(=O)N2C(=O)CC(=O)N(c3ccccc3)C2=S)cc1)N1C(=O)CC(=O)N(c2ccccc2)C1=S	OVCAR-4	44.4 µM (inactive)
O=C(CO)CC(=O)C(=O)Nc1cccc(C(F)(F)F)c1	OVCAR-4	> 100 µM (inactive)

query: Please look up its GI50: CCCC(=O)OC[n+]1ccc(-c2c(COC(=O)NC(C)C)c(COC(=O)NC(C)C)c3n2CCC3)cc1
result: > 100 µM (inactive)

query: Reported GI50 for Nc1nc2c3nc(Nc4ccccc4)sc3nc(=S)n2c2sc(Nc3ccccc3)nc12 : what is it?
result: > 100 µM (inactive)

query: Give its GI50 value. Item: CCOC(=O)C(C)N1C(=O)c2ccccc2S1(=O)=O (stereo unspecified)
result: > 100 µM (inactive)

query: Requested read-out: GI50. Entry: OC(c1ccccc1)(c1ccccc1)c1ccccn1
result: > 100 µM (inactive)

query: Entry CCN(CC)c1ccc(Cl)c2c1C(O)(C(C)C)C2(C)C (stereo unspecified) has what GI50?
result: 19 µM (inactive)

The values you see were collected from ChEMBL document CHEMBL1201862.
